System: A549/ATCC NSCLC
TEST METHOD NOTES: NCI-60 one-dose screen, 48 h (100 = growth as untreated, 0 = no growth, -100 = all killed)
ASSAY CONTEXT: 10 µM unless noted
Compounds without any hit were thinned out: in the full panel of roughly 83,000, 20% have a hit.
PROPERTY MEASURED: growth (%)
One number for each entry, in %.

# CPD SMILES, VALUE
rows = [
    ("CCOC(=O)c1c2c(n3cccc(F)c13)C(=O)c1ncccc1C2=O", -9.79),
    ("CCCCNC(=O)CC1=C(C)/C(=C/c2[nH]c(-c3ccc[nH]3)cc2OC)N=C1C", 12.4),
]

For each entry beneath this line, provide reported growth.
1. COc1ccc(C2=C(Br)C(=O)c3nc(C)ccc3C2=O)cc1
2. CCOC(=O)C/C(=N\Nc1cc(=O)[nH]c2ccc(Br)cc12)C(=O)OCC

// result
1: 98; 2: 106
